assay: BSK_BE3C_SRB: Viability Assessment in the BioMAP Diversity Plus: BE3C Assay (AID 2283028); conditions: primary human bronchial epithelial cells;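 note: measured 24 h after chemical dosing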
The source made the active and inactive calls. Rule for the calls: active = hit-call score of the fitted dose curve at least 0.9, where 1 is the maximum; inactive = score below 0.9.
Possible outcomes: active, inactive

{"smilesString": "Cc1ccc(Cl)cc1", "group": "inactive"}
{"smilesString": "Cc1cc(=O)[nH]c(=S)[nH]1", "group": "inactive"}
{"smilesString": "COc1ccc2c(c1)c(CC(=O)O)c(C)n2C(=O)c1ccc(Cl)cc1", "group": "inactive"}
{"smilesString": "Cc1cc(NC(=O)C(=O)O)cc(C)c1Oc1ccc(O)c2c1CCC2", "group": "inactive"}
{"smilesString": "COc1cc(-c2nc(NC(=O)c3cc4cc(C)cc(C)c4n3CC(=O)O)sc2CCC2CCCCC2)c(OC)cc1Cl", "group": "active"}
{"smilesString": "Nc1ccc2c(c1)C(=O)c1ccccc1C2=O", "group": "inactive"}
{"smilesString": "CCCCCCCC=O", "group": "inactive"}
{"smilesString": "C[Si]1(C)O[Si](C)(C)O[Si](C)(C)O[Si](C)(C)O1", "group": "inactive"}
{"smilesString": "Clc1cc(Cl)c(Cl)cc1Cl", "group": "inactive"}
{"smilesString": "CC(C)(C)c1cc(O)c(C(C)(C)C)cc1O", "group": "inactive"}
{"smilesString": "CNC(=O)[C@H]1O[C@@H](n2cnc3c(NCc4cc(Cl)ccc4OCc4cc(C)no4)ncnc32)[C@H](O)[C@@H]1N", "group": "inactive"}
{"smilesString": "CC1(C)NC(=O)NC1=O", "group": "inactive"}
{"smilesString": "Nc1ccc(S(=O)(=O)c2ccc(N)cc2)cc1", "group": "inactive"}
{"smilesString": "C[C@]12C=CC(=O)C=C1CC[C@@H]1[C@@H]2C(=O)C[C@@]2(C)[C@H]1CC[C@]2(O)C(=O)CO", "group": "inactive"}
{"smilesString": "Oc1ccc2c(c1)OC[C@@H](N1CCC(O)(c3ccc(F)cc3)CC1)[C@H]2O", "group": "inactive"}
{"smilesString": "O=c1[nH]cc(F)c(=O)[nH]1", "group": "inactive"}
{"smilesString": "O=C(O)CCCCC(=O)O", "group": "inactive"}
{"smilesString": "c1cc(-c2ccncc2)ccn1", "group": "inactive"}
{"smilesString": "Oc1ccc2ccccc2c1N=Nc1ccccc1", "group": "inactive"}
{"smilesString": "CN1CCCC1=O", "group": "inactive"}
{"smilesString": "CC1=C(/C=C/C(C)=C/C=C/C(C)=C/CO)C(C)(C)CCC1", "group": "inactive"}
{"smilesString": "COc1ccc(S(=O)(=O)N2C(=O)[C@@](c3ccccc3OC)(N3C[C@H](O)C[C@H]3C(=O)N(C)C)c3cc(Cl)ccc32)c(OC)c1", "group": "inactive"}
{"smilesString": "O=[N+]([O-])C(CO)(CO)CO", "group": "inactive"}
{"smilesString": "CCCCCCCCCCCC(=O)OC", "group": "inactive"}
{"smilesString": "FC(F)(F)C(F)(F)C(F)(F)C(F)(F)C(F)(F)C(F)(F)CCI", "group": "inactive"}
